- experiment.summary: solubility according to the General Rules of the Japanese Pharmacopoeia 14th Edition
- Format: physicochemical
- test.context: Solution 1 of the Japanese Pharmacopoeia; 20±5° C. within 30 minutes; sulfate
Where a name gives a salt, the structure may show the parent alone.
Listed below: solubility in Solution 1 values for each entry.

[
  {
    "compound": "Cc1cccc2scc(Cn3c(SCCCC(=O)O)nc4ccccc43)c12 [Crystal-SC, sulfate]",
    "solubility in Solution 1 / µg/mL": 10.6
  },
  {
    "compound": "Cc1cccc2scc(Cn3c(SCCCC(=O)O)nc4ccccc43)c12 [Crystal-SB, sulfate]",
    "solubility in Solution 1 / µg/mL": 19.8
  },
  {
    "compound": "Cc1cccc2scc(Cn3c(SCCCC(=O)O)nc4ccccc43)c12 [Crystal-SA, sulfate]",
    "solubility in Solution 1 / µg/mL": 8.6
  },
  {
    "compound": "Cc1cccc2scc(Cn3c(SCCCC(=O)O)nc4ccccc43)c12 [Crystal-SF, sulfate]",
    "solubility in Solution 1 / µg/mL": 7.6
  }
]
